Experiment: Human HepG2 cell viability assay in 384 well format
Assay type: toxicity, cell-based
Set-up: dose 125 nL, time 70.5 hour; concentration not given beside the values
Settings: HepG2 cells, read-out: Inhibition
Task for the reader: assign each of the following compounds its reported cytotoxicity at 70.5 h.

Use these answered entries as a reference point.
{"compound": "CC(C)CN(Cc1ccsc1)C(=O)CCCn1cncn1", "recordedResult": "-0.11%"}
{"compound": "Cc1cccc2c1nc(CCO)n2-c1ccc(C(=O)N2CCOCC2)o1", "recordedResult": "-1.12%"}
{"compound": "CC(=O)NCC1CCN(C(=O)c2ccc(Sc3ccccn3)cc2)CC1", "recordedResult": "-16.7%"}

Take each entry in turn and give its cytotoxicity at 70.5 h.
1. [O-][S+](CCN1CCc2[nH]nc(C(F)(F)F)c2C1)c1ccccc1 (stereo unspecified)
2. CSc1ccc(CNc2ccccc2CN2CCC(O)CC2)cc1
3. Cc1nc(C2CCCN(C(=O)c3ccc(Cn4cccn4)o3)C2)no1 (stereo unspecified)

Result:
-6.21%
-3.71%
-12.8%
